- Test Target: 5-LO (Homo sapiens)
- Construct: incubating a test compound with heparinised human blood, prior to challenge with the calcium ionophore A23187; endogenous in cells
- Sequence (P09917 whole entry): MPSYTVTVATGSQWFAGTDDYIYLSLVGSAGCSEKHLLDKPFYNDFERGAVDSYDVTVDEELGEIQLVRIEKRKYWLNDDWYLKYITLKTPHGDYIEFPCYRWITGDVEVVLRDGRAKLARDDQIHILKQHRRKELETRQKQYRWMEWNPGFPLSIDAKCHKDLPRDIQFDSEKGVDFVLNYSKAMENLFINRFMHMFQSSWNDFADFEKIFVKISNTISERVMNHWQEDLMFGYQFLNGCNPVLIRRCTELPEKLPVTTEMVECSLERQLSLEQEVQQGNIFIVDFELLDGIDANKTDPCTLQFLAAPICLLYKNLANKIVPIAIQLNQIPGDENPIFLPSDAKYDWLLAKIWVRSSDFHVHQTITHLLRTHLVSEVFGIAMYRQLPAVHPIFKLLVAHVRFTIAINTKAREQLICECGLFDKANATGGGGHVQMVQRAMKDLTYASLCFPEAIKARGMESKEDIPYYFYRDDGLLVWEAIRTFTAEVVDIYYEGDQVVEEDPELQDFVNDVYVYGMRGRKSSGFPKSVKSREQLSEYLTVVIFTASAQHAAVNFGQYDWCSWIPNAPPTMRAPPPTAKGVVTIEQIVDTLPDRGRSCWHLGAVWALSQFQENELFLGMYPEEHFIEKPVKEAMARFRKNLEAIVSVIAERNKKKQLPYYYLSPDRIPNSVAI
- Assay: Test a): in vitro heparinised human blood challenged with calcium ionophore A23187, radioimmunoassay of LTB4
- Condition Description: A23187 challenge, read-out: IC₅₀ against LTB₄
pIC50: −log10 of the molar value.
Measurement Type: pIC50

1: COC1CCC(C)C(c2cccc(OCc3ccc4c(ccc(=O)n4C)c3)c2)C1 (centres unmarked)
2: COC1(OC)CC[C@H](C)[C@H](c2cccc(OCc3ccc4c(ccc(=O)n4C)c3)c2)C1 (racemic)
### Prompt Sorting ascending by pIC50, which comes first: 1 or 2 ? Please reply using the label of the selected record.
### Response 1
